- protocol.notes: Isomerization study in PBS at pH 7.4 via HPLC-MS
- Assay type: physicochemical
- run.conditions: 0 h, PBS pH 7.4, 50 μM, 1% DMSO
Marks after values point to notes of the source that are not given here.
measurement.kind: % isomer 1

Sample answers from the record:
# input What does the record list as % isomer 1 for CN(C)c1cccnc1C=NNC(N)=S [(Z)-Me2NNH2] ?
# output 94 (13.9) %

# input What does the record list as % isomer 1 for CNc1cccnc1/C=N/NC(N)=S.Cl ?
# output 100 (10.5) %

# input What does the record list as % isomer 1 for CN(C)C(=S)N/N=C/c1ncccc1N ?
# output 100 (10.2) %

# input What does the record list as % isomer 1 for CNC(=S)N/N=C/c1ncccc1NC ?
# output 99 (11.3) %

# input What does the record list as % isomer 1 for NC(=S)N/N=C/c1ncccc1N [Triapine, reference compound] ?
# output 100 (7.7) ^b %

Below: the item to evaluate.
# input What does the record list as % isomer 1 for CNc1cccnc1/C=N/NC(=S)N(C)C.Cl ?
# output 98 (11.3) %

Cited source for all entries: paper PMC4966696
